procedureDetails: Confirmation screen for delayed death inhibitors of the malarial parasite plastid, 96 hour incubation; note: nearly all actives have a fitted effect of over 60% in size
statedConditions: P. falciparum luciferase growth in erythrocytes; series mostly up to 28.7 µM
Screen size: about 2,300 compounds; about 1,400 (61%) were called active. Another 29% or so got no clear call; they are omitted. Calls come from the whole dose curve; as a rule, active = well fitted inhibition curve with a large enough effect; inconclusive = small, poorly fitted or top-dose-only effect, or effect the other way; inactive = no such curve, though single readings can be large or run the other way. So high a share suggests a set chosen from earlier hits. Some of the results follow.
The reply should be one of these categories: 1 (active), -1 (inactive)

- compound: "O=C(N/N=C/c1ccccn1)c1cc([N+](=O)[O-])cc([N+](=O)[O-])c1"
  assignedCategory: 1
- compound: "CCOC(=O)C1=C(C)N=c2s/c(=C\\c3ccc(OCC(=O)O)cc3)c(=O)n2C1c1ccc(OC(C)C)cc1 (stereo unspecified)"
  assignedCategory: 1
- compound: "C(=N\\N(c1ccccc1)c1ccccc1)/c1ccccn1"
  assignedCategory: -1
- compound: "CCOC(=O)C1CCN(C(=O)CCc2nnc3ccc(NCc4ccco4)nn23)CC1"
  assignedCategory: 1
- compound: "CC(C)C[C@@H](NC(=O)[C@H](Cc1ccccc1)NC(=O)c1cnccn1)B(O)O"
  assignedCategory: 1
- compound: "Cc1ccc(/C=C/c2ccc(N(C)C)cc2)[n+](C)c1"
  assignedCategory: 1
- compound: "c1ccn2cc(C34CC5CC(CC(C5)C3)C4)nc2c1"
  assignedCategory: 1
- compound: "CC[n+]1ccccc1/C=C/c1ccc(N(C)C)cc1"
  assignedCategory: 1
- compound: "CSC1=NC(C)(C)C=C(/C=C/c2ccc(Cl)cc2)N1"
  assignedCategory: 1
- compound: "CSC1=NC(C)(C)C=C(/C=C/c2c(Cl)cccc2Cl)N1"
  assignedCategory: 1

Moving on to the next compound.
Q) Outcome logged for CCCOc1ccccc1/C=C1\SC(N2CCCCC2)=NC1=O in this assay:
A) 1

* * *

procedureDetails: Confirmation screen for delayed death inhibitors of the malarial parasite plastid, 96 hour incubation; note: nearly all actives have a fitted effect of over 60% in size
statedConditions: P. falciparum luciferase growth in erythrocytes; series mostly up to 28.7 µM
The whole screen tested about 2,300 compounds, of which about 1,400 (61%) were called active. Inconclusive results (about 29%) are left out. Calls follow the shape of the dose curve; as a rule, active = well fitted inhibition curve with a large enough effect; inconclusive = small, poorly fitted or top-dose-only effect, or effect the other way; inactive = no such curve, though single readings can be large or run the other way. So high a share suggests a set chosen from earlier hits. This is one part of the list.
Pick one and only one: 1 for active, 0 for inactive

- molecule: "CCCCCCCCC[n+]1cccc2c3ccccc3ccc21"
  assignedCategory: 1

Q) Recorded test outcome, item Cn1c(CCN2CCCCC2)nc2cc(NS(=O)(=O)c3ccc(F)cc3)ccc21
A) 1

Q) Recorded test outcome, item COc1ccc(NC(=O)Cc2coc3cc(C)c(C(C)C)cc23)cc1S(=O)(=O)N1CCOCC1
A) 1

* * *

procedureDetails: Confirmation screen for delayed death inhibitors of the malarial parasite plastid, 96 hour incubation; note: nearly all actives have a fitted effect of over 60% in size
statedConditions: P. falciparum luciferase growth in erythrocytes; series mostly up to 28.7 µM
Among all 2,300 compounds or so, about 1,400 (61%) were called active. Roughly 29% stayed inconclusive and do not appear here. Calls follow the shape of the dose curve; as a rule, active = well fitted inhibition curve with a large enough effect; inconclusive = small, poorly fitted or top-dose-only effect, or effect the other way; inactive = no such curve, though single readings can be large or run the other way. The set was probably picked from earlier hits. This is one part of the list.
Select the matching outcome among t (active), f (inactive)

- compound: "CCN(CC)S(=O)(=O)c1ccc(N2CCc3ccccc3C2)nc1"
  assignedCategory: "t"
- compound: "CCN(CC)CCn1c2c(c(SCC(=O)Nc3nc4ccccc4s3)nc1=O)CCCC2"
  assignedCategory: "t"
- compound: "Cc1c(Cl)ccc2c(C(=O)O)cc(-c3ccccc3)nc12"
  assignedCategory: "f"
- compound: "C[C@H]1[C@@H](OC(=O)CCC(=O)O)OC2OC3(C)CC[C@H]4[C@H](C)CC[C@@H]1[C@@]24OO3 (stereo not given in full)"
  assignedCategory: "t"
- compound: "COc1cccc(-c2ccc3ncnc(NCc4cccs4)c3c2)c1"
  assignedCategory: "t"

Q) So what was the verdict on O=C1CSC(c2cccnc2)N1CCc1ccccn1 (stereo not given) in this test?
A) f

Q) Could you kindly confirm the outcome this assay logged for O=C(C[n+]1cc(Br)cc2ccccc21)c1ccccc1 ?
A) t

Q) Any idea what this test logged for COc1ccc2c(ccc[n+]2CC(=O)c2ccccc2)c1 ?
A) t

Q) Called result for CC(C)(C)OC(=O)CNC(=O)c1[nH]cnc1C(=O)NC1CCN(C(=O)OC(C)(C)C)CC1
A) t

Q) # outcome recorded in this test, key = C[C@@H]1CCC2[C@@H](C)[C@@H](O)O[C@@H]3O[C@@]4(C)CC[C@@H]1[C@@]23OO4 (stereo not given in full)
A) t

Q) Outcome logged for CN(C)c1ccc(CNc2ncnc3sccc23)cc1 in this assay:
A) f

* * *

procedureDetails: Confirmation screen for delayed death inhibitors of the malarial parasite plastid, 96 hour incubation; note: nearly all actives have a fitted effect of over 60% in size
statedConditions: P. falciparum luciferase growth in erythrocytes; series mostly up to 28.7 µM
Screen size: about 2,300 compounds; about 1,400 (61%) were called active. About 29% were inconclusive and are not listed. The call rests on the fitted dose curve; in most records, active means well fitted inhibition curve with a large enough effect; inconclusive means small, poorly fitted or top-dose-only effect, or effect the other way; inactive means no such curve, though single readings can be large or run the other way. So high a share suggests a set chosen from earlier hits. The list shows a part of the results.
Write down one outcome, taken from 1 (yes) for active, 0 (no) for inactive

Would you please look over these solved cases?
- compound: "COc1ccccc1-n1c(=S)[nH]c2c(sc(=S)n2-c2ccc(C)cc2C)c1=O"
  assignedCategory: "1 (yes)"
- compound: "CC(C)(CNC(=O)/C=C/c1ccc(F)cc1)CNC(=O)/C=C/c1ccc(F)cc1"
  assignedCategory: "1 (yes)"
- compound: "CC(=O)N(C)C1=C(N2CCOCC2)C(=O)c2ccccc2C1=O"
  assignedCategory: "1 (yes)"
- compound: "COc1ccc(CNCc2ccc3ccccc3c2)c(OC)c1"
  assignedCategory: "1 (yes)"
- compound: "COc1ccc(/C=C2\\CCC/C(=C\\C=N\\N(C)C)C2=O)cc1"
  assignedCategory: "1 (yes)"
- compound: "Cn1c(=O)n(Cc2ccccc2)c(=O)c2c1nc1n2CCN1Cc1ccco1"
  assignedCategory: "1 (yes)"
- compound: "COc1cc([N+](=O)[O-])c(OC)cc1SCc1n[nH]c(=S)n1-c1ccc(F)cc1"
  assignedCategory: "1 (yes)"
- compound: "CCC(C)(C)NC(=O)C(c1cccc(OC)c1OC)N(CC(C)C)C(=O)CCC(=O)Nc1cc(C)on1 (stereo not given)"
  assignedCategory: "1 (yes)"

Q) Which outcome was entered for the compound CSCCn1c(C(C)(C)C)cc(C(=O)O)c1C in this test?
A) 0 (no)

Q) Outcome logged for CCN(CC)c1ccc(-c2sc(Nc3ccccc3)n[n+]2-c2ccc(F)cc2)cc1 in this assay:
A) 1 (yes)

* * *

procedureDetails: Confirmation screen for delayed death inhibitors of the malarial parasite plastid, 96 hour incubation; note: nearly all actives have a fitted effect of over 60% in size
statedConditions: P. falciparum luciferase growth in erythrocytes; series mostly up to 28.7 µM
Out of some 2,300 compounds screened, about 1,400 (61%) were called active. About 29% were inconclusive and are not listed. Calls follow the shape of the dose curve; as a rule, active = well fitted inhibition curve with a large enough effect; inconclusive = small, poorly fitted or top-dose-only effect, or effect the other way; inactive = no such curve, though single readings can be large or run the other way. The set was probably picked from earlier hits. This is one part of the list.
# valid calls are Yes (active), No (inactive); nothing else

Record excerpt, results attached:
- compound: "CN(C)S(=O)(=O)c1ccc(Cl)c(NC(=O)CN2C(=O)NC(C)(C3CC3)C2=O)c1 (stereo not given)"
  assignedCategory: "Yes"
- compound: "Cc1ccc(S(=O)(=O)N2CCN(c3ccc(C(=O)N4CCOCC4)cc3[N+](=O)[O-])CC2)cc1"
  assignedCategory: "Yes"
- compound: "COCCn1c(C)cc(C(=O)CSc2cc(C)c3ccc(OC)cc3n2)c1C"
  assignedCategory: "Yes"
- compound: "COCCn1c(SCC(=O)Nc2ccccc2F)nc2c(c1=O)SCC2"
  assignedCategory: "No"

Q) Each compound tested received a call. Report the one for Nc1c(C(=O)CSc2nc3ccccc3o2)c(=O)[nH]c(=O)n1C1CC1 .
A) Yes

Q) Record request — test call for CCC(=O)NCCc1cc2ccc(C)cc2[nH]c1=O
A) No

Q) GET /call?item= c1ccc2c(c1)Nc1cc3ccccc3cc1S2 returns the recorded outcome of this test.
A) Yes

Q) Recorded test outcome, item Cc1ccccc1-n1c(SCC(=O)c2c(N)n(C3CC3)c(=O)[nH]c2=O)nnc1N1CCOCC1
A) Yes

Q) Recorded test call requested for CC(C)(C(=O)N[C@H](CO)c1ccccc1)C(=O)N[C@H](CO)c1ccccc1
A) No

Q) Hello, I am checking results. What call was entered for CCN(CC)C1=N/C(=C\c2ccc(OC)cc2)C(=O)N1c1ccccc1 ?
A) Yes

* * *

procedureDetails: Confirmation screen for delayed death inhibitors of the malarial parasite plastid, 96 hour incubation; note: nearly all actives have a fitted effect of over 60% in size
statedConditions: P. falciparum luciferase growth in erythrocytes; series mostly up to 28.7 µM
Out of some 2,300 compounds screened, about 1,400 (61%) were called active. Not shown: some 29% with an inconclusive outcome. Calls come from the whole dose curve; as a rule, active = well fitted inhibition curve with a large enough effect; inconclusive = small, poorly fitted or top-dose-only effect, or effect the other way; inactive = no such curve, though single readings can be large or run the other way. The set was probably picked from earlier hits. This is one part of the list.
Permitted responses: true for active, false for inactive

- molecule: "O=C(CCl)c1ccc2c(c1)CCN2C(=O)C1CCCCC1"
  assignedCategory: "true"
- molecule: "CC1(C)Cc2nc(-c3ccccc3)nc(SCC(O)CO)c2CO1 (stereo unspecified)"
  assignedCategory: "true"
- molecule: "CN1CCN(c2ccccc2NC(=O)c2cccc(OCc3ccccc3)c2)CC1"
  assignedCategory: "true"

Q) Tell me the recorded outcome of this test for CC(Oc1ccc(Br)cc1)C(=O)N1CCN(c2ccccn2)CC1 (stereo unspecified) .
A) true

Q) Each molecule tested received a call. Report the one for Cc1cc(Cl)cc(C)c1OCCn1ccnc1 .
A) true
